assay: qHTS of pediatric cancer cell lines to identify multiple opportunities for drug repurposing: Primary screen for SK-N-SH cells (AID 1347098); conditions: SK-N-SH viability, CellTiter-Glo luminescence, 48 h; series mostly up to 57 µM; note: nearly all actives have a fitted effect of over 65% in size; note: potency is the fitted concentration of half-maximal effect
Records with an inconclusive call do not appear. Activity calls are given as the source filed them. Calls come from the whole dose curve; as a rule, active = well fitted cell-killing curve with a large enough effect; inconclusive = small, poorly fitted or top-dose-only effect; inactive = no such curve, though single readings can be large or run the other way.
reportedMetric: Potency

Check out these entries, answers already filled in.
molecule	Potency
CC[C@@H](C)[C@H](NC(=O)[C@H](CC1CCCCC1)NC(=O)c1ccno1)C(=O)N1CCC2(CCc3ccccc32)CC1	inactive
CCOc1cc(N2CCC(O)CC2)ccc1Nc1ncc2c(n1)N(C)c1ccccc1C(=O)N2C	4.29 µM (active)
O=S(=O)(N=Cc1c(O)ccc2ccccc12)c1cccs1	inactive
Cc1n[nH]c(C)c1Cc1sc2c(c1C(=O)N1C[C@H](O)CO1)c(=O)n(C)c(=O)n2CC(C)C	inactive
N[C@@H]1CONC1=O	inactive

Notebook: CCC(C)n1ncn(-c2ccc(N3CCN(c4ccc(OC[C@H]5CO[C@](Cn6cncn6)(c6ccc(Cl)cc6Cl)O5)cc4)CC3)cc2)c1=O (stereo not given in full) , Potency read as inactive

Notebook: NCCc1ccc(O)c(O)c1 , Potency read as inactive

Notebook: COc1ccc(-c2oc3cc(OC)ccc3c2C(=O)c2ccc(C#N)cc2)cc1 , Potency read as 24.1 µM (active)

Notebook: CC(C)(C)OC(=O)CN(Cc1ccc(Cl)cc1)Cc1ccc([N+](=O)[O-])s1 , Potency read as inactive

Notebook: CCCC(CCC)C(=O)O , Potency read as inactive

Notebook: Cc1ccccc1C(C(=O)NC1CCCC1)N(C(=O)Cn1cnc2ccccc21)c1cccc(F)c1 (stereo not given) , Potency read as inactive

Notebook: CS(=O)(=O)c1cccc(CNc2nc(Nc3ccc4c(c3)CCC(=O)N4)ncc2C(F)(F)F)c1 , Potency read as 24.1 µM (active)

Notebook: CC(C)OC(=O)C1=CN(C(=O)c2ccc(F)c(F)c2)CC(C)(C)c2c1[nH]c1ccccc21 , Potency read as inactive

====

assay: qHTS of pediatric cancer cell lines to identify multiple opportunities for drug repurposing: Primary screen for Rh18 cells (AID 1347102); conditions: Rh18 rhabdomyosarcoma viability, CellTiter-Glo luminescence, 48 h; series mostly up to 46 µM; note: nearly all actives have a fitted effect of over 65% in size
Results filed as inconclusive are left out. The source made the active and inactive calls. The call rests on the fitted dose curve; in most records, active means well fitted cell-killing curve with a large enough effect; inconclusive means small, poorly fitted or top-dose-only effect; inactive means flat fitted curve, though single readings scatter.
Your response should consist of one outcome taken from active, inactive

Answered examples (4):
smilesCode	label
Oc1cccc(-c2nc(N3CCOCC3)c3oc4ncccc4c3n2)c1	active
CNCc1ccc(-c2[nH]c3cc(F)cc4c3c2CCNC4=O)cc1	inactive
CC(C)(C)OC(=O)CN(Cc1ccc(Cl)cc1)Cc1ccc([N+](=O)[O-])s1	inactive
Cc1[nH]c(=O)c(C#N)cc1-c1ccc2nccn2c1	inactive

-- ask # outcome recorded in this test, key = C[C@H](NC(=O)Cc1cc(F)cc(F)c1)C(=O)N[C@@H]1C(=O)N(C)c2ccccc2-c2ccccc21
-- reply inactive

-- ask # outcome recorded in this test, key = O=c1[nH]cnc2[nH]ncc12
-- reply inactive

====

Assay: qHTS assay for environmental chemicals that activate the Aryl hydrocarbon Receptor (AhR) signaling pathway (AID 651777); note: % of control where 0% means no effect; nearly all actives have a fitted effect of over 15% in size
Details: 1A2-DRE human hepatoma cells, luciferase, 24 h; active compounds read high
Source text: National Center for Advancing Translational Sciences [NCATS] NIH Chemical Genomics Center [NCGC] U.S. Environmental Protection Agency [EPA] National Institutes of Environmental Health Sciences [NIEHS] National Toxicology Program [NTP] The Aryl hydrocarbon Receptor (AhR) plays a critical role in the development of cancer or neoplasm and its formation is most likely due to genetic mutations and the influence of environment. […]
Results filed as inconclusive are left out.
reportedMetric: activation (%)
All answers are understood in %, so give the number only.

Check out these entries, answers already filled in.
molecule	unitTag	activation
CNC[C@H](O)c1cccc(O)c1	%	-0.659
Cc1[nH]c(=O)c(C#N)cc1-c1ccncc1	%	0.896

Notebook: C[C@]12CCC(=O)C=C1CC[C@@H]1[C@@H]2[C@@H](O)C[C@@]2(C)[C@H]1CC[C@]2(O)C(=O)CO , activation read as -1.47

Notebook: NS(=O)(=O)c1cc2c(cc1Cl)NC=NS2(=O)=O , activation read as -1.42

Notebook: NC(N)=NC(=O)c1nc(Cl)c(N)nc1N , activation read as 6.31

Notebook: Cc1c(C)c2c(c(C)c1O)CCC(C)(COc1ccc(CC3SC(=O)NC3=O)cc1)O2 (stereo not drawn) , activation read as 5.68

Notebook: O=c1[nH]cnc2[nH]ncc12 , activation read as -0.722

Notebook: O=C1CCC(N2C(=O)c3ccccc3C2=O)C(=O)N1 (stereo not drawn) , activation read as -0.0215
